Data origin, for the record: PubChem BioAssay

# Assay summary: compound effects on lung adenocarcinoma cell viability – A549, calcein-AM fluorescence, 48 h, basal, profiling panel (AID 1162); note: test concentration not given here
# Setup conditions: higher = more signal
The compounds listed here are annotated with their z-score.

Reference set, count: 5
1) CC(C)(C)OC(=O)CC[C@@]1(C(=O)NCC(O)CO)N=C(c2ccc(OCCCO)cc2)O[C@@H]1c1ccccc1 (some centres not stated) ... -0.0139
2) C=CCOC(=O)[C@@H]1[C@H]2C(=O)O[C@H](c3ccccc3)[C@H](c3ccccc3)N2[C@H](c2ccc(OCCOC(=O)[C@H]3C[C@H]4C(=O)N[C@@H](CCCC[N+](C)(C)C)C(=O)N4[C@H]3c3cccc(OCCO)c3)cc2)[C@@]12C(=O)Nc1ccc(I)cc12 ... -0.299
3) CCOC1=C2C(c3ccc(C)cc3)N(S(=O)(=O)c3ccc(C)cc3)CC2n2c(=O)n(-c3ccccc3)c(=O)n2C1 (configuration not stated) ... -0.943
4) CC(C)C(=C=CC[C@H](O)c1ccccc1OCCO)CCO ... -0.417
5) O=C1O[C@H](c2ccccc2)[C@H](c2ccccc2)N2[C@H]1[C@@H](C(=O)NC[C@H](O)c1ccccc1)[C@]1(C(=O)Nc3ccc(C#CC4(O)CCCCCC4)cc31)[C@H]2c1ccccc1OCCO ... -0.509

Record `CC(C)(C)OC(=O)CC[C@@]1(C(=O)N2CCOCC2)N=C(c2ccc(OCCCO)cc2)O[C@@H]1c1ccccc1N=[N+]=[N-]` , field z-score: 0.962

Record CC(C)C(CO)N1C(=O)[C@@H]2[C@H]3C(=O)OCC=C[C@H]3OC23C=CCN(c2ccc4ccccc4c2)C(=O)[C@@H]13 (some centres not stated) , field z-score: -0.339

Record `COc1ccc(C(=O)Nc2cccc(CN3C(=O)[C@@]4(O[C@@H](CCn5cc([C@H](O)c6ccccc6)nn5)[C@H]([Si](C)(C)c5ccc(OC)cc5)[C@H]4C)c4ccccc43)c2)cc1` , field z-score: -0.311

Record C=CCC(OC(C)=O)[C@@H]1[C@@H](N(Cc2cc3ccccc3o2)C(=O)c2ccc(C)cc2)c2cc(OCCCO)ccc2N1C(=O)c1ccc(-c2ccccc2)cc1 (some centres not stated) , field z-score: 2.54

Record `CCOC(=O)C1=CC[C@@H](c2ccccc2)N(S(=O)(=O)c2ccc(C)cc2)[C@H]1c1ccc(C#N)cc1` , field z-score: 0.423

Record O=C1OCCC/C=C\[C@H]2OC34C=CCN(CCN5CCOCC5)C(=O)[C@H]3N(CCO)C(=O)[C@@H]4C12 (some centres not stated) , field z-score: -1.18

Record C=CCC(OC(C)=O)[C@@H]1[C@@H](N(Cc2cc3ccccc3o2)C(=O)c2cccc3ccccc23)c2cc(OCCCO)ccc2N1C(=O)Cc1ccc(OC)cc1 (some centres not stated) , field z-score: 0.323

Record `[N-]=[N+]=Nc1ccccc1[C@@H]1OC(c2ccc(OCCCO)cc2)=N[C@]1(CCS(=O)(=O)c1ccccc1)C(=O)O` , field z-score: 0.926

Record C=CCC(OC(C)=O)[C@@H]1[C@@H](N(Cc2ccc(-c3cccc(C(F)(F)F)c3)o2)C(=O)Cc2ccc(OC)cc2)c2cc(OCCCO)ccc2N1C(=O)Cc1ccc(OC)cc1 (some centres not stated) , field z-score: 1.92

Record `CCCCC(=C=CC[C@H](O)c1ccccc1OCCO)C[C@H](O)c1cc(Cl)cc(Cl)c1O` , field z-score: 0.441

Record `CCCC[C@@H]1C[C@H]1[C@@H](NC(=O)c1ccco1)c1ccccc1` , field z-score: -2.22

Record `CC(C)[C@H]1COC(=O)N1C(=O)[C@H]1[C@@H](c2ccccc2)N(c2ccccc2)O[C@@H]1C` , field z-score: 0.198
